Experiment: binders of probe aFSTL3 on microarray, primary screen, stem cell growth factor project, biochemical, small-molecule microarray, fluorescence 635/667 (AID 1064);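 also: measures binding of the biotinylated anti-FSTL3 antibody to printed compounds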
Details: higher = more signal
Assignment: determine reported composite z-score for the given compounds.
Answer with the value's number alone.

input: Given the entry COCCOC(=O)N1C(=O)[C@@]2(c3cc(C#CC4(O)CCCCCC4)ccc31)[C@H](C(=O)N1CCCCCCC1)[C@H]1C(=O)O[C@H](c3ccccc3)[C@H](c3ccccc3)N1[C@@H]2c1ccccc1OCCO , report its measured composite z-score.
output: 2.49

input: Given the entry C=CC[C@@]1(C(=O)O)N=C(c2ccc(OCCCO)cc2)O[C@@H]1c1ccccc1N=[N+]=[N-] , report its measured composite z-score.
output: 1.44

input: Given the entry [N-]=[N+]=Nc1ccccc1[C@@H]1OC(c2ccc(OCCCO)cc2)=N[C@]1(CCS(=O)(=O)c1ccccc1)C(=O)N1CCOCC1 , report its measured composite z-score.
output: 0.712

input: Given the entry O=C1C[C@]2(c3ccc([N+](=O)[O-])cc3)C(=O)N(CC(F)(F)F)c3cc(CO)ccc3[C@H]2N1CC12CC3CC(CC(C3)C1)C2 , report its measured composite z-score.
output: -0.127

input: Given the entry C=CCN1C(=O)[C@]2(O[C@H](CCO)[C@@H]([Si](C)(C)c3ccc(OC)cc3)[C@@H]2C)c2cc(NC(=O)[C@H](C)O)ccc21 , report its measured composite z-score.
output: -0.561

input: Given the entry CC(C)CNC(=O)[C@@H]1c2ccccc2C(=O)N(Cc2cc(C(F)(F)F)cc(C(F)(F)F)c2)[C@H]1c1ccc(CO)cc1 , report its measured composite z-score.
output: 0.491

----------
Test: CREB reporter modulators under forskolin, primary screen, cell-based, PC12, CRE-LacZ reporter, forskolin-stimulated (AID 1146);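 also: PC12 cells with 6xCRE LacZ reporter stimulated by forskolin 10 µM; beta-galactosidase reporter signal reflecting CREB driven transcription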
Conditions: luminescence, 4.5 h, higher = more signal, called active from +8 up or from −8 down
Calls of active or inactive are those of the source.
Assignment: determine reported z-score for the given compounds.

input: Given the entry C[C@H]1NC(=O)[C@H](Cc2ccccc2)NC(=O)[C@@]23C(=O)N[C@@H](Cc4ccccc4)C2[C@H](C)[C@@]2(C)O[C@H]2C3/C=C/C/C=C\CNC1=O (some centres undefined) , report its measured z-score.
output: -0.522 (inactive)

input: Given the entry N#Cc1ccc(NN2C(C(O)C3CCCCC3)C=CC3C(=O)N(c4ccccc4)C(=O)C32)cc1 (centres undefined) , report its measured z-score.
output: 1.47 (inactive)

input: Given the entry CCCCCN1CC=CC23O[C@@H]4C=CCOC(=O)[C@@H]4[C@H]2C(=O)N(CCCO)[C@@H]3C1=O (some centres undefined) , report its measured z-score.
output: -0.771 (inactive)

input: Given the entry CC(C)c1ccc(NN2C(C(O)c3c(F)cccc3Cl)C=CC3C(=O)N(c4ccccc4)C(=O)C32)cc1 (centres undefined) , report its measured z-score.
output: 0.746 (inactive)

input: Given the entry [N-]=[N+]=NCc1ccccc1C[C@]1(C(=O)NCCN2CCOCC2)N=C(c2ccc(OCCCO)cc2)O[C@H]1c1ccccc1N=[N+]=[N-] , report its measured z-score.
output: -0.891 (inactive)

input: Given the entry C=C(C(=O)CC[C@H](OC(C)=O)c1ccc(OCCO)cc1)C(C)C , report its measured z-score.
output: 0.655 (inactive)

input: Given the entry CCOC(=O)C1=CC[C@@H](c2ccccc2Cl)N(S(=O)(=O)c2ccc(C)cc2)C1 , report its measured z-score.
output: -0.0077 (inactive)

input: Given the entry CC(C)C[C@@H]1NC(=O)[C@@H]2C[C@H](C(=O)NCCCCCC[N+](C)(C)C)[C@H](c3ccc(O)cc3)N2C1=O , report its measured z-score.
output: 0.0161 (inactive)

input: Given the entry Cc1ccc(S[C@]2(C(=O)NCC(C)C)CC(=O)N(Cc3ccccc3)[C@@H]2c2ccc(CO)cc2I)cc1 , report its measured z-score.
output: 1.27 (inactive)

input: Given the entry O=C1OCCC=C[C@H]2OC34C=CCN(Cc5ccccc5)C(=O)[C@H]3N(CCCCCCO)C(=O)[C@@H]4C12 (some centres undefined) , report its measured z-score.
output: -0.395 (inactive)

input: Given the entry C=CC[C@@]1(C(=O)N2CCOCC2)N=C(c2ccc(OCCCO)cc2)O[C@@H]1c1ccccc1N=[N+]=[N-] , report its measured z-score.
output: -1.34 (inactive)

input: Given the entry C=CC(=C)C1=CCO[C@@H]1[C@H]1CCCN1S(=O)(=O)c1ccccc1[N+](=O)[O-] , report its measured z-score.
output: 0.619 (inactive)

input: Given the entry COC(=O)[C@@]1(Cc2ccccc2)[C@H]2c3cc(C(=O)N(C)C)n(Cc4cc(C)n(C)n4)c3C[C@H]2CN1C(=O)c1ccccc1 , report its measured z-score.
output: 1.92 (inactive)

input: Given the entry COc1ccc([Si](C)(C)[C@H]2[C@H](CCn3cc([C@H](O)c4ccccc4)nn3)O[C@@]3(C(=O)N(Cc4cccc(N5CCC5=O)c4)c4ccccc43)[C@@H]2C)cc1 , report its measured z-score.
output: -0.157 (inactive)

input: Given the entry COCCOC(=O)N1C(=O)[C@@]2(c3cc(C#CCCO)ccc31)[C@H](C(=O)NC[C@H](O)c1ccccc1)[C@H]1C(=O)O[C@H](c3ccccc3)[C@H](c3ccccc3)N1[C@@H]2c1ccc(O)cc1 , report its measured z-score.
output: -0.201 (inactive)

input: Given the entry CC1CC/C=C\[C@H]2OC34C=CCN(Cc5ccccc5)C(=O)[C@H]3N(CCCCCO)C(=O)[C@@H]4C2C(=O)O1 (some centres undefined) , report its measured z-score.
output: 0.424 (inactive)

input: Given the entry COCCCNC(=O)[C@@]1(CCC(=O)OC(C)(C)C)N=C(c2ccc(OCCCO)cc2)O[C@H]1c1ccccc1CN=[N+]=[N-] , report its measured z-score.
output: 0.286 (inactive)

input: Given the entry O=C1C[C@@](C(=O)NC2CC2)(c2ccc([N+](=O)[O-])cc2)[C@@H](c2ccc(CO)cc2)N1CC12CC3CC(CC(C3)C1)C2 , report its measured z-score.
output: -1.12 (inactive)

input: Given the entry CCOC(=O)C[C@H]1[C@H](OC(=O)c2ccccc2-c2ccccc2)[C@@H](NC(=O)c2ccc3ccccc3c2)c2cc(OCCCO)ccc2N1C(=O)c1ccc2ccccc2n1 , report its measured z-score.
output: 0.429 (inactive)

input: Given the entry C=C(COC)/C(=C/C[C@H](OC(=O)c1ccncc1)c1cccc(OCCO)c1)c1cc(C(=O)OC)ccc1OC , report its measured z-score.
output: -0.616 (inactive)

input: Given the entry CCCCCN1CC=CC23O[C@@H]4/C=C\CCC(C)OC(=O)C4[C@H]2C(=O)N(CCCCCO)[C@@H]3C1=O (some centres undefined) , report its measured z-score.
output: 0.069 (inactive)

input: Given the entry COc1ccc([Si](C)(C)[C@@H]2[C@@H](CC(=O)N3CCC[C@H]3CO)O[C@]3(C(=O)N(C)c4c(Br)cc(C)cc43)[C@H]2C)cc1 , report its measured z-score.
output: 0.157 (inactive)

input: Given the entry C=C(CCCC)/C(=C/C[C@H](OC(C)=O)c1ccc(CO)o1)c1cnc2ccccc2c1 , report its measured z-score.
output: 1.65 (inactive)

input: Given the entry COC(=O)[C@@]1(Cc2ccccc2)N=C(c2ccc(OCCCO)cc2)O[C@H]1c1ccccc1N=[N+]=[N-] , report its measured z-score.
output: -1.52 (inactive)

----------
Assay: mitochondrial membrane potential change in A549 cells, profiling panel, cell-based, JC-1 fluorescence, basal, 24 h, 100 nL (AID 1138);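 also: A549 lung adenocarcinoma cells under basal conditions with no added stimulus; test concentration not given here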
Settings: higher = more signal
Assignment: determine reported z-score for the given molecules.
Answer with the value's number alone.

input: Given the entry C=CC[C@@]1(C(=O)N2CCOCC2)N=C(c2ccc(OCCCO)cc2)O[C@@H]1c1ccccc1N=[N+]=[N-] , report its measured z-score.
output: 0.0318

input: Given the entry CCCCC=C[C@@H](NC(=O)c1ccco1)c1ccccc1 , report its measured z-score.
output: -0.881

input: Given the entry N#Cc1ccc(NN2C(C(O)c3ccc([N+](=O)[O-])cc3)C=CC3C(=O)N(c4ccccc4)C(=O)C32)cc1 (centres undefined) , report its measured z-score.
output: -0.257

input: Given the entry CCCC[C@H]1OB(O)C[C@H]2C1=C(C)C[C@H]1C(=O)N(Cc3ccccc3)C(=O)[C@H]12 , report its measured z-score.
output: 0.625

input: Given the entry CC(C)C[C@@H]1NC(=O)[C@H]2C[C@@H](C(=O)NCCCCCCNC(=O)CS)[C@@H](c3cccc(OCCO)c3)N2C1=O , report its measured z-score.
output: 1

input: Given the entry CS(=O)(=O)CCOC(=O)C1=CC(c2ccc(CO)cc2)=CC(C2CC2)N(Cc2cc3c(cc2Br)OCO3)C=C1C(=O)OCCS(C)(=O)=O (centres undefined) , report its measured z-score.
output: 2.44

input: Given the entry COC(=O)[C@@]1(Cc2ccc(OC)cc2)[C@H]2c3cc(C(=O)N4CCCC4)n(Cc4cc(F)cc5c4OCOC5)c3C[C@H]2CN1C(=O)c1ccccc1 , report its measured z-score.
output: 0.64

input: Given the entry C[C@]1(C(=O)NCc2ccccc2)c2ccccc2C(=O)N(Cc2cc(F)cc(C(F)(F)F)c2)[C@H]1c1ccc(CO)cc1 , report its measured z-score.
output: 0.916

input: Given the entry COC(=O)c1ccc(C23CC2(C(NP(=O)(c2ccccc2)c2ccccc2)c2ccccc2)C3)cc1 (centres undefined) , report its measured z-score.
output: 2.44

input: Given the entry CC(C)CNC(=O)[C@@H]1c2ccccc2C(=O)N(Cc2cc(C(F)(F)F)cc(C(F)(F)F)c2)[C@H]1c1ccc(CO)cc1 , report its measured z-score.
output: 0.157

input: Given the entry COc1ccc([Si](C)(C)[C@@H]2[C@@H](CC(=O)N3CCC[C@H]3CO)O[C@]3(C(=O)N(C)c4c(Br)cc(C)cc43)[C@H]2C)cc1 , report its measured z-score.
output: 0.66

input: Given the entry Cc1ccc(S[C@]2(C(=O)NCc3ccccc3)CC(=O)N(Cc3ccccc3)[C@@H]2c2ccc(CO)cc2)cc1 , report its measured z-score.
output: 0.561

input: Given the entry CN1C(=O)C2C=CC(C(O)c3ccccn3)N(Nc3ccccc3)C2C1=O (centres undefined) , report its measured z-score.
output: -0.633

input: Given the entry COC(=O)[C@@]1(Cc2ccccc2)N=C(c2ccc(OCCCO)cc2)O[C@H]1c1ccccc1N=[N+]=[N-] , report its measured z-score.
output: 1.35

input: Given the entry Cc1ccccc1C(O)C1C=CC2C(=O)N(C)C(=O)C2N1N1CCCCC1 (centres undefined) , report its measured z-score.
output: 0.0822

input: Given the entry O=C/C=C/c1ccc2c(c1)OCO2 , report its measured z-score.
output: 0.231

input: Given the entry N[C@@H](Cc1ccccc1)Cn1cc(-c2ccccc2)nn1 , report its measured z-score.
output: 0.805

input: Given the entry CC(C)(C)N1CC=CC23O[C@@H]4C=CCOC(=O)[C@@H]4[C@H]2C(=O)N(CCCCCO)[C@@H]3C1=O (some centres undefined) , report its measured z-score.
output: -0.879

input: Given the entry CCOC(=O)C1=CC[C@@H](c2ccccc2Cl)N(S(=O)(=O)c2ccc(C)cc2)C1 , report its measured z-score.
output: 2.73

input: Given the entry COc1ccc([Si](C)(C)[C@@H]2[C@@H](CCn3cc([C@H](O)c4ccccc4)nn3)O[C@]3(C(=O)N(Cc4cccc(N5CCOC5=O)c4)c4ccccc43)[C@H]2C)cc1 , report its measured z-score.
output: 2.14

input: Given the entry C=CCNC(=O)[C@@H]1[C@H]2C(=O)O[C@H](c3ccccc3)[C@H](c3ccccc3)N2[C@H](c2ccc(O)cc2)[C@@]12C(=O)N(C(=O)OCCOC)c1ccccc12 , report its measured z-score.
output: -0.595

input: Given the entry O=C1C2C=CC(C(O)c3ccc(F)cc3)N(Nc3ccccc3)C2C(=O)N1c1ccccc1 (centres undefined) , report its measured z-score.
output: -0.101

input: Given the entry COCCCNC(=O)[C@@]1(C)c2ccccc2C(=O)N(Cc2cc(C(F)(F)F)cc(C(F)(F)F)c2)[C@H]1c1ccc(CO)cc1 , report its measured z-score.
output: 0.509

input: Given the entry CCCC[C@@H]1C[C@H]1[C@@H](NC(=O)c1ccc(-c2ccccc2)cc1)c1ccc(-c2ccccc2)cc1 , report its measured z-score.
output: 0.738

input: Given the entry C[C@]1(C(=O)NCc2ccccc2)c2ccccc2C(=O)N(Cc2ccc(OC(F)(F)F)cc2)[C@H]1c1ccc(CO)cc1 , report its measured z-score.
output: 1.27

input: Given the entry O=C(CS)NCCCCCCNC(=O)[C@H]1C[C@H]2C(=O)NCC(=O)N2[C@H]1c1ccc(O)cc1 , report its measured z-score.
output: 0.139

input: Given the entry O=C1C2C=CC(C(O)c3cccs3)N(Nc3ccccc3F)C2C(=O)N1c1ccccc1 (centres undefined) , report its measured z-score.
output: -0.265

input: Given the entry C=CCC(OC(C)=O)[C@@H]1[C@@H](N(Cc2cc3ccccc3o2)C(=O)c2ccc(C)cc2)c2cc(OCCCO)ccc2N1C(=O)c1ccc2ccccc2c1 (some centres undefined) , report its measured z-score.
output: 1.24

input: Given the entry O=C1C[C@]2(c3ccc([N+](=O)[O-])cc3)C(=O)N(CC(F)(F)F)c3cc(CO)ccc3[C@H]2N1CC12CC3CC(CC(C3)C1)C2 , report its measured z-score.
output: 0.297
